Assign ED50 to each entry below.
system: mice; assay: 2-phenyl-1,4-benzoquinone-induced writhing test in mice (analgesia); assay type: in vivo; conditions: Mus musculus, sc; mice, subcutaneous, 2-phenyl-1,4-benzoquinone-induced writhing; read-out: Dose (subcutaneous) [ED50], inhibition of writhing
Structures can show the parent of a compound that is named as a salt.
All answers are understood in mg/kg, so give the number only.

Q: Data request, read-out ED50, for Cl.Cl.OCCN1CCN(c2n[nH]c3ccccc23)CC1
Result: 2

Q: Data request, read-out ED50, for Fc1ccc(C(CCCN2CCN(c3n[nH]c4ccccc34)CC2)c2ccc(F)cc2)cc1 [hydrochloride]
Result: 3.6

Q: Data request, read-out ED50, for CN1CCN(c2nn(C(=O)c3ccccc3)c3cc(F)ccc23)CC1
Result: 4.3

Q: Data request, read-out ED50, for CN1CCN(c2nn(CC3CC3)c3ccccc23)CC1
Result: 1.5

Q: Data request, read-out ED50, for O=C1CC2(CCCC2)CC(=O)N1CCCCN1CCN(c2n[nH]c3ccccc23)CC1
Result: 0.07
